# Tested on: L1210 leukemia ip in BDF1 mice, survival T/C
# experimental.details: NCI In Vivo Anticancer Drug Screen. Data for tumor model L1210 Leukemia (intraperitoneal) in B6D2F1 (BDF1) mice
# condition.summary: endpoint: mean survival time; dose: 400.0 mg/kg/injection; schedule: Q01DX001 (ip); vehicle: other; higher = longer survival
Inconclusive results and toxic doses are left out.
assay.metric: T/C

Sample records with T/C:
- COc1cccc(/C=N\NC(=O)CCCC(=O)N/N=C/c2cccc(OC)c2OC)c1OC: 91 % of control
- O=C(CCCC(=O)N/N=C/c1ccc(Cl)cc1)N/N=C\c1ccc(Cl)cc1: 91 % of control
- Cc1ccc(N=Nc2cc(C(C)C)c(O)cc2C)cc1: 95 % of control
- Oc1ccccc1C=Nc1ccccc1S.[Cu+2]: 96 % of control

Ask | Please indicate T/C recorded for `O=C1CN=C(c2ccc[nH]2)c2cc(Cl)ccc2N1`
Reply | 112 % of control

Ask | Please indicate T/C recorded for `CCOC(CN=Cc1cc(C)c2[nH]c3ccc(OC)cc3c2c1C)OCC`
Reply | 98 % of control

Ask | Please indicate T/C recorded for CCCCCNC(=O)CC(O)C(=O)NCCCCC (centres undefined)
Reply | 96 % of control

Ask | Please indicate T/C recorded for `O=S(=O)(O)c1cccc2cccc(N=Nc3ccc(O)cc3)c12`
Reply | 94 % of control

Ask | Please indicate T/C recorded for `COc1ccc(C2=NNC(c3ccc(OC)cc3)=NN2)cc1`
Reply | 93 % of control

###

# Test system: L1210 leukemia ip in BDF1 mice, survival T/C
# experimental.details: NCI In Vivo Anticancer Drug Screen. Data for tumor model L1210 Leukemia (intraperitoneal) in B6D2F1 (BDF1) mice
# condition.summary: endpoint: mean survival time; dose: 200.0 mg/kg/injection; schedule: Q04DX002 (ip); vehicle: saline with Tween-80; higher = longer survival
Toxic doses and inconclusive results are not listed.
assay.metric: T/C

Sample records with T/C:
* CCCCN=C=S | 91 % of control
* CCOc1ccc(OC/C=C(\C)CCC=C(C)C)cc1 | 94 % of control

// moving on: another record for T/C
Ask | Report T/C under test system L1210 leukemia ip in BDF1 mice, survival T/C for CCCCSC(=O)C(C)O (stereo not drawn) .
Reply | 89 % of control

###

# System: L1210 leukemia ip in BDF1 mice, survival T/C
# experimental.details: NCI In Vivo Anticancer Drug Screen. Data for tumor model L1210 Leukemia (intraperitoneal) in B6D2F1 (BDF1) mice
# condition.summary: endpoint: mean survival time; dose: 100.0 mg/kg/injection; schedule: Q01DX001 (ip); vehicle: saline; higher = longer survival
Inconclusive results and toxic doses are left out.
assay.metric: T/C

Ask | Please indicate T/C recorded for CC(C(=O)O)S(=O)(=O)Cc1ccccc1 (stereo not given)
Reply | 94 % of control

Ask | Please indicate T/C recorded for `O=S(=O)(CCl)OCCCCOS(=O)(=O)CCl`
Reply | 111 % of control

Ask | Please indicate T/C recorded for `CCCCCOC(=O)C(C(=O)OCCCCC)(C(=O)OCCCCC)C(=O)OCCCCC`
Reply | 100 % of control

Ask | Please indicate T/C recorded for `CC(C)(NC(=O)NCCCl)c1ccccc1`
Reply | 96 % of control

Ask | Please indicate T/C recorded for `CCCCCN(C(=N)CCCC)S(=O)(=O)c1ccccc1`
Reply | 89 % of control

Ask | Please indicate T/C recorded for `[N-]=[N+]=NC1=C(c2ccccc2)C(=O)C(N=[N+]=[N-])=C(c2ccccc2)C1=O`
Reply | 88 % of control

Ask | Please indicate T/C recorded for `O=C1C=C(NCCCCC2CCCCC2)c2ccccc2C1=O`
Reply | 95 % of control
